Assay: Cytotoxicity against human LX2 cells assessed as reduction in cell viability incubated for 24 hrs
Format: toxicity, cell-based
Conditions: LX-2 cells
property_name: IC50 at 24 h

### Prompt Fill in IC50 at 24 h for record `O=Cc1c(-c2nc(NCCc3ccc(O)cc3)c3ccccc3n2)[nH]c2ccccc12`
### Response > 15 µM

----------
System: RKO
Experiment: Antiproliferative activity against human RKO cells assessed as reduction in cell viability incubated for 24 hrs
Format: functional, cell-based
pIC50: −log10 of the molar value.
property_name: pIC50

Example entries and their recorded answers appear below.
CC(=O)c1c(-c2nc(NCCCN(C)C)c3ccccc3n2)[nH]c2ccccc12	< 5.00
CCC(=O)Nc1nc(-c2[nH]c3ccccc3c2C=O)nc2ccccc12	< 5.00
Cc1c(-c2nc(N(C)CCCN(C)C)c3ccccc3n2)[nH]c2ccccc12	< 5.00
O=Cc1c(-c2nc(NCCc3ccc(O)cc3)c3ccccc3n2)[nH]c2ccccc12	7.00
Cc1c(-c2nc(NCCCN3CCN(C)CC3)c3ccccc3n2)[nH]c2ccccc12	< 5.00

Go through the items and report each one's pIC50.
1. CC(=O)c1c(-c2nc(NCCN(C)C)c3ccccc3n2)[nH]c2ccccc12
2. O=Cc1c(-c2nc(NCCCC(F)(F)F)c3ccccc3n2)[nH]c2ccccc12
3. CN(C)CCCNc1nc(-c2[nH]c3ccc(F)cc3c2C=O)nc2ccccc12
4. O=Cc1c(-c2nc(NCC3CCC3)c3ccccc3n2)[nH]c2ccccc12

### Response
1: < 5.00; 2: 5.34; 3: 5.72; 4: 5.21

Go through the items and report each one's pIC50.
1. O=Cc1c(-c2nc(NC(=O)c3cccnc3)c3ccccc3n2)[nH]c2ccccc12
2. CCCC(=O)Nc1nc(-c2[nH]c3ccccc3c2C=O)nc2ccccc12

### Response
1. < 5.00
2. < 5.00
